biological target: Delta-type opioid receptor (Rattus norvegicus); assay: Compound was evaluated for the binding affinity towards Opioid receptor delta 1 in rat brain homogenates using [3H]DIDI as radioligand; format: tissue-based
Give measured pKi for each item. Keep answers brief.
Hey, just a heads up that pKi is the negative log base 10 of the concentration in molar.

Prompt: Item Oc1ccc2c3c1O[C@H]1c4[nH]c5ccccc5c4C[C@@]4(O)[C@@H](C2)N(CC2CC2)CC[C@]314 has what recorded pKi?
Response: 10.05

Prompt: Item CCO[C@@]12Cc3c([nH]c4ccccc34)[C@]3(C)Oc4c(O)ccc5c4[C@@]31CCN(C)[C@@H]2C5 has what recorded pKi?
Response: 8.06

Prompt: Item CCO[C@@]12Cc3c([nH]c4ccccc34)[C@]3(C)Oc4c(O)ccc5c4[C@@]31CCN(CC1CC1)C2C5 has what recorded pKi?
Response: 7.85

Prompt: Item C=CCN1CC[C@]23c4c5ccc(O)c4O[C@@]2(C)c2[nH]c4ccccc4c2C[C@@]3(OCC)[C@H]1C5 has what recorded pKi?
Response: 7.52

* * *

biological target: Mu-type opioid receptor (Rattus norvegicus, UniProt P33535)
Sequence (P33535 whole entry): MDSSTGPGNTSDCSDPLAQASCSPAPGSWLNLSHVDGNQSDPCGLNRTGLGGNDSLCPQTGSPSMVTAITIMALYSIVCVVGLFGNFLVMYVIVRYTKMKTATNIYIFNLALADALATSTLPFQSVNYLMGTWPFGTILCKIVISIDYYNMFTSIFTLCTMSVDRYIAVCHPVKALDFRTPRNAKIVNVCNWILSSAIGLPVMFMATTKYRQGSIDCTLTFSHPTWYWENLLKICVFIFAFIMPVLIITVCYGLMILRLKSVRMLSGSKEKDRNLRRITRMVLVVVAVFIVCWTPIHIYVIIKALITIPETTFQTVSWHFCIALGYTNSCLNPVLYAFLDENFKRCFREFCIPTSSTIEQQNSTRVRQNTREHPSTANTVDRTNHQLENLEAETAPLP
Give measured Ki for each item. Keep answers brief.
Entry rule: numbers only, all in nM.

Prompt: Item CCO[C@@]12Cc3c([nH]c4ccccc34)[C@]3(C)Oc4c(O)ccc5c4[C@@]31CCN(CC1CC1)C2C5 has what recorded Ki?
Response: 38.7

Prompt: Item CCO[C@@]12Cc3c([nH]c4ccccc34)[C@]3(C)Oc4c(O)ccc5c4[C@@]31CCN(C)[C@@H]2C5 has what recorded Ki?
Response: 715

Prompt: Item C=CCN1CC[C@]23c4c5ccc(O)c4O[C@@]2(C)c2[nH]c4ccccc4c2C[C@@]3(OCC)[C@H]1C5 has what recorded Ki?
Response: 667

* * *

// values below are pKi; system is Kappa-type opioid receptor (Rattus norvegicus, UniProt P34975)
Sequence (P34975 whole entry): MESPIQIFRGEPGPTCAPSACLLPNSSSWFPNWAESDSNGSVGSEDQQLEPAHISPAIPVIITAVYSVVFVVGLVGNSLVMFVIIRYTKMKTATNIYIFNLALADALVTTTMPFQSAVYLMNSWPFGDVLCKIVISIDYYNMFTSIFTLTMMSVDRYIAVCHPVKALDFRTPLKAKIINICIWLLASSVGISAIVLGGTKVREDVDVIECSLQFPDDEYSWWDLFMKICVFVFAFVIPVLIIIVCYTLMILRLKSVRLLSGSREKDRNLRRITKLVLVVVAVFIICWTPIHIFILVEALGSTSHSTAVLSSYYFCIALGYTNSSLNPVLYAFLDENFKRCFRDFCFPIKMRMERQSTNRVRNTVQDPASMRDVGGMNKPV
Hey, just a heads up that pKi is the negative log base 10 of the concentration in molar.

Prompt: Item CCO[C@@]12Cc3c([nH]c4ccccc34)[C@]3(C)Oc4c(O)ccc5c4[C@@]31CCN(CC1CC1)C2C5 has what recorded pKi?
Response: 7.23

Prompt: Item CCO[C@@]12Cc3c([nH]c4ccccc34)[C@]3(C)Oc4c(O)ccc5c4[C@@]31CCN(C)[C@@H]2C5 has what recorded pKi?
Response: 6.54

Prompt: Item C=CCN1CC[C@]23c4c5ccc(O)c4O[C@@]2(C)c2[nH]c4ccccc4c2C[C@@]3(OCC)[C@H]1C5 has what recorded pKi?
Response: 6.12

* * *

Give measured Ki for each item. Keep answers brief.
target: Delta-type opioid receptor (Rattus norvegicus, UniProt P33533); assay: Compound was evaluated for the binding affinity towards Opioid receptor delta 1 in rat brain homogenates using [3H]naltrindole as radioligand; assay type: tissue-based
Sequence (P33533 whole entry): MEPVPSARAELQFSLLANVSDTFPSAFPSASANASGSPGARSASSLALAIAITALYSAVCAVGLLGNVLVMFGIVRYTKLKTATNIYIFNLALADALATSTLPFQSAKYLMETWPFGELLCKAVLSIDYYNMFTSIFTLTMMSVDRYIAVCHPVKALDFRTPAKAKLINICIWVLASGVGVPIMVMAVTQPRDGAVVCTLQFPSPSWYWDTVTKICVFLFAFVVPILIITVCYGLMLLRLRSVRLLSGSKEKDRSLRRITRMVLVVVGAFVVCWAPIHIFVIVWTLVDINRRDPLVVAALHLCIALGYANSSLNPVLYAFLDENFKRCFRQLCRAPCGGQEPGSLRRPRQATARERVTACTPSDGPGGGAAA
Entry rule: numbers only, all in nM.

Prompt: Item C=CCN1CC[C@]23c4c5ccc(O)c4O[C@@]2(C)c2[nH]c4ccccc4c2C[C@@]3(OCC)[C@H]1C5 has what recorded Ki?
Response: 10.8

Prompt: Item CCO[C@@]12Cc3c([nH]c4ccccc34)[C@]3(C)Oc4c(O)ccc5c4[C@@]31CCN(C)[C@@H]2C5 has what recorded Ki?
Response: 5.75

Prompt: Item Oc1ccc2c3c1O[C@H]1c4[nH]c5ccccc5c4C[C@@]4(O)[C@@H](C2)N(CC2CC2)CC[C@]314 [NALTRINDOLE] has what recorded Ki?
Response: 0.33

Prompt: Item CCO[C@@]12Cc3c([nH]c4ccccc34)[C@]3(C)Oc4c(O)ccc5c4[C@@]31CCN(CC1CC1)C2C5 has what recorded Ki?
Response: 0.78

Recorded values, source ChEMBL document CHEMBL1130557.
